test system: OVCAR-8; experiment: NCI tumour cell line growth inhibition, 48 h
Active and inactive are the calls of the source. Cut-off read from the data, not from the text of the source: active = GI50 up to about 1.1 µM and inactive = higher.
Choose the fitting class; nothing outside active, inactive is accepted.

# structure.as.smiles, answer.label
measured = [
    ("CCc1n[nH]c(=O)n1/N=C(\\C)c1ccccc1", "inactive"),
    ("CN(C)c1cccc(F)c1C(=O)NC(=O)Nc1ccc(Cl)cc1", "inactive"),
    ("CCOC(=O)NC/C=C/CO", "inactive"),
    ("O=C1/C=C(/c2ccc(O)cc2)[C@@H](O)Cc2ccc(O)cc2O1", "inactive"),
    ("O=C(NCCc1ccc(F)cc1)c1cc(/C=C/c2cc(O)ccc2O)ccc1O", "inactive"),
]

Task: Status in this test for `CC(C)C[C@H](NC(=O)[C@H](Cc1cccc2ccccc12)NC(=O)N1CCOCC1)B(O)O` ?
Result: active

* * *

tested on: M14; test: NCI tumour cell line growth inhibition, 48 h
Active and inactive are the calls of the source. Cut-off read from the data, not from the text of the source: active = GI50 up to about 1.1 µM and inactive = higher.
Listed next: entries and their corresponding GI50.

Here is how some compounds turned out for GI50.
# compound, target.or.test.system, GI50
data = [
    ("CC(=O)OCSc1ncnc2c1ncn2CN1CCOCC1", "M14", "2.25 µM (inactive)"),
    ("CCc1cccc(C(C)C)c1NC(=O)CCl", "M14", "46.3 µM (inactive)"),
    ("COc1cccc2cc(C(N)=O)c(=N)oc12", "M14", "46.6 µM (inactive)"),
    ("CN(C)CCOc1ccc(-c2c(Oc3ccccc3)c(=O)oc3ccccc23)cc1", "M14", "2.23 µM (inactive)"),
    ("O=C(CC(C(=O)c1cccs1)c1ccsc1)c1ccco1 (stereo not drawn)", "M14", "19.4 µM (inactive)"),
    ("Cc1c(Cl)cccc1NC(=O)C(=O)c1c(O)c2ccc(O)cc2oc1=O", "M14", "> 100 µM (inactive)"),
    ("CC1(C)CC2=NOS3=C2C(=NO3)C1c1ccccn1 (stereo not drawn)", "M14", "40.7 µM (inactive)"),
    ("O=C([O-])C[n+]1ccccc1.c1ccncc1", "M14", "> 100 µM (inactive)"),
]

Task: Which measured GI50 value corresponds to CCC(C)c1c(Cl)nc(Cl)nc1Cl (stereo not drawn) ?
Result: 1.44 µM (inactive)

Task: What GI50 value was documented for this compound, `CCN(CC)CCOc1ccc(CCc2cc(OC)c(OC)c(OC)c2)cc1` ?
Result: 17.5 µM (inactive)

Task: Fill in the blank: the reported GI50 of `O=C(/C=C\c1ccc(-c2ccccc2)cc1)c1cccs1` is ____.
Result: > 100 µM (inactive)

Task: Consider the compound shown here: `N#Cc1nc(-c2ccc(-c3nc(C#N)c(N)o3)cc2)oc1N` What is its recorded GI50?
Result: > 10 µM (inactive)

Task: Which GI50 value is on record for `CC(C)(C)c1ccc(OCCOCCOc2ccc(C(C)(C)C)cc2S(=O)(=O)Nc2ccc([N+](=O)[O-])cc2)c(S(=O)(=O)Nc2ccc([N+](=O)[O-])cc2)c1` ?
Result: 8.28 µM (inactive)

Task: For the compound shown here, `CC1(C)C=C(S(=O)(=O)c2ccccc2)Oc2ccccc2O1` , give the reported GI50.
Result: 46 µM (inactive)

Task: Any idea what GI50 was measured for `O=c1c(C(c2ccc3c(c2)Cc2ccccc2-3)c2c(O)oc3ccccc3c2=O)c(O)oc2ccccc12` ?
Result: 20.5 µM (inactive)

Task: Dear colleague, I am looking for the recorded GI50 of the following compound: BrC(=C(c1ccc(OC2CCCCO2)cc1)c1ccc(OC2CCCCO2)cc1)c1ccccc1 (stereo not drawn)
Result: > 100 µM (inactive)

* * *

tested on: MCF7; assay: NCI tumour cell line growth inhibition, 48 h
The source made the active and inactive calls. No stated cut-off is given here; in the data, active = GI50 up to about 1.1 µM and inactive = higher.
Could you please pick one outcome from this set? active, inactive

# compound, answer.label
data = [
    ("Cc1nc2sccn2c1C(=O)OCCOCCOCCOCCOC(=O)c1c(C)nc2sccn12", "inactive"),
    ("CC(=N\\N)/C(C)=N/N=C(C)/C(C)=N/N=C(C)/C(C)=N/N=C(C)/C(C)=N/N", "inactive"),
    ("CN1C(C(=O)Nc2ccccn2)=C(O)c2ccccc2S1(=O)=O [PIROXICAM]", "inactive"),
    ("CCC1(O)C=CC(=O)C=C1", "inactive"),
    ("CCOC(=O)[C@@H]1ON2O[C@@H](OC3CCCC3(c3ccccc3)c3ccccc3)C[C@H]3OC(=O)[C@@H]1C32 (some centres not stated)", "inactive"),
    ("CO[C@H]1O[C@@H]2CO[C@@H](c3ccccc3)O[C@H]2C[C@]12CCC/C=C\\CO2", "inactive"),
]

Task: Per the assay record, what outcome was assigned to COc1cccc2c1C(=O)c1c(O)c3c(c(O)c1C2=O)C[C@@](O)(C(=O)CO)C[C@@H]3OC1CC(N)C(OC)C(C)O1 (some centres not stated) ?
Result: active

Task: Tell me the assay call for CN1C(=O)C(O)CC1c1ccccc1C(F)(F)F (configuration not stated) please.
Result: inactive

Task: Recorded test call requested for `O=C([O-])C[n+]1ccccc1.c1ccncc1`
Result: inactive

* * *

system: HOP-62; experiment: NCI tumour cell line growth inhibition, 48 h
Active and inactive are the calls of the source. No stated cut-off is given here; in the data, active = GI50 up to about 1.1 µM and inactive = higher.
assay.readout: GI50

Some solved entries appear below for comparison.
# molecule, GI50
measured = [
    ("COc1cc(C2c3cc4c(c(O)c3C(=O)C3CCC(=O)N32)OCO4)cc(OC)c1OC (centres undefined)", "82.8 µM (inactive)"),
    ("O=C1Nc2ccccc2Nc2ccncc21", "> 100 µM (inactive)"),
    ("Cc1ccccc1-n1c(=O)c2ncn(C3CCCO3)c2n(-c2ccccc2C)c1=S (centres undefined)", "> 100 µM (inactive)"),
    ("NC(=O)c1c([N+](=O)[O-])cc(C(F)(F)F)cc1[N+](=O)[O-]", "> 100 µM (inactive)"),
    ("COc1cc2c(c(O)c1C)C(=O)C(Cl)=CC2=O", "43.2 µM (inactive)"),
]

Task: Data request, read-out GI50, for `O=c1[nH]c2ccccc2cc1C(Cl)=C(Cl)Cl`
Result: > 100 µM (inactive)

Task: // returns reported GI50 for input `OC1(C(Sc2ccccc2)Sc2ccccc2)CCCCCC1`
Result: 21.9 µM (inactive)

* * *

Each item that follows carries a reported GI50.
tested on: MOLT-4; test: NCI tumour cell line growth inhibition, 48 h
Activity calls are given as the source filed them. Rule as the data show it: active = GI50 up to about 1.1 µM and inactive = higher.

These recorded examples may help you get a feel for the data.
# molecule, GI50
rows = [
    ("CCOC(=O)c1nc2ccc(C(F)(F)F)cc2nc1Nc1ccc(Cl)c(Cl)c1", "> 100 µM (inactive)"),
    ("O=C(O)c1ccc(/N=C(\\C(=N\\c2ccc(C(=O)O)cc2)c2ccccc2)c2ccccc2)cc1", "> 100 µM (inactive)"),
    ("O=C(Nc1ccn(C2CCC(CO)O2)c(=O)n1)c1ccccc1 (stereo unspecified)", "> 100 µM (inactive)"),
    ("CC(=O)n1nc(-c2ccc3ccccc3c2)nc1C", "56.8 µM (inactive)"),
    ("CCOC(=O)CCC(NC(=O)Cc1ccc(Oc2nc3ccccc3nc2-c2cccs2)cc1)C(=O)OCC (stereo unspecified)", "> 100 µM (inactive)"),
]

Task: Entry `NC(=O)C1CCN(Cc2c(Cl)c(Cl)c(CN3CCC(C(N)=O)CC3)c(Cl)c2Cl)CC1` has what GI50?
Result: > 100 µM (inactive)

* * *

system: HT-29; assay: NCI tumour cell line growth inhibition, 48 h
Active and inactive are the calls of the source. Rule as the data show it: active = GI50 up to about 1.1 µM and inactive = higher.
Below is a list of entries, each paired with its recorded GI50 value.

# molecule, GI50
records = [
    ("OCc1ccn2c1[C@@H](O)CC2", "> 100 µM (inactive)"),
    ("CC(C)CCCC(C)[C@H]1CC[C@H]2[C@@H]3CC[C@H]4C[C@@H](CCC=C(c5cc(Cl)c(O)c(C(=O)OC(C)(C)C)c5)c5cc(Cl)c(O)c(C(=O)OC(C)(C)C)c5)CC[C@]4(C)[C@H]3CC[C@]12C (stereo partly specified)", "> 50 µM (inactive)"),
    ("C(=C\\c1cc[n+](CCc2ccccc2)cc1)/c1ccccc1", "6.79 µM (inactive)"),
    ("CN1C(=O)CN2C(Cl)(Cl)C2(c2ccccc2)c2cc(Cl)ccc21 (stereo unspecified)", "67.5 µM (inactive)"),
    ("C#C[C@]1(O)CC[C@H]2[C@@H]3CCC4=C/C(=N\\OCCN5CCCC5)CC[C@]4(C)[C@H]3CC[C@@]21C", "12.7 µM (inactive)"),
]

Task: // lookup GI50 | system=HT-29 | key= COC(=O)c1cc(C)ccc1CC(Cc1cccc(C)c1)C(=O)OC (stereo unspecified)
Result: 50.6 µM (inactive)

* * *

Below, each entry is listed with its recorded GI50.
system: HCT-116; assay: NCI tumour cell line growth inhibition, 48 h
Active and inactive are the calls of the source. Rule as the data show it: active = GI50 up to about 1.1 µM and inactive = higher. Where a SMILES comes first, the peptide text is derived from it. The star is where a group is joined. Fmoc = O=C(OCC1c2ccccc2-c2ccccc21)*; Boc = CC(C)(C)OC(=O)*

Recorded GI50, per entry:
# molecule, GI50
rows = [
    ("CC(C)(C)OC(=O)NCCCCC(NC(=O)OCC1c2ccccc2-c2ccccc21)C(=O)N1CCCC1C(=O)NCC(N)=O (stereo not drawn) (Fmoc-Lys(Boc)-Pro-Gly-NH2; configuration not given here)", "36.6 µM (inactive)"),
    ("CC[C@]12C=CCN3CC[C@@]4(c5cc(N=O)c(OC)cc5N(C)[C@H]4[C@@](O)(C(=O)OC)[C@@H]1OC(C)=O)[C@@H]32", "50.7 µM (inactive)"),
    ("Cc1ccc(N2C(=O)C3C=CC(n4[nH]c(=O)n(Cc5ccccc5)c4=O)CC3C2=O)cc1 (stereo not given)", "> 100 µM (inactive)"),
    ("COc1ccc2[nH]c3c(c2c1)CCn1c-3nc2ccccc2c1=O", "> 25 µM (inactive)"),
]

// moving on: another record for GI50
Task: Provide the documented GI50 with HCT-116 as the system for `COc1ccccc1/C=C(\NC(=O)c1ccccc1)c1nc2ccccc2[nH]1`
Result: 34 µM (inactive)

From: ChEMBL document CHEMBL1201862
